- assayRemarks: qHTS assay to identify small molecule antagonists of the farnesoid-X-receptor (FXR) signaling pathway - cell viability counter screen (AID 743221); further: nearly all actives have a fitted effect of over 50% in size
- testSettings: FXR-bla HEK293T viability, CellTiter-Glo luminescence, 16 h; series mostly up to 62.6 µM
Inconclusive results are not listed. Active and inactive are the calls of the source. The call rests on the fitted dose curve; in most records, active means well fitted cell-killing curve with a large enough effect in the repeat runs (not every such curve was filed as active); inconclusive means weak or mixed curves, or effect the other way; inactive means no such curve, though single readings can be large or run the other way.
One label from this list, please: label 1 (active), label 0 (inactive)

IN: Recorded test call requested for `O=C(O)c1cccc(O)c1`
OUT: label 0

IN: # iterate: `CNC(=S)NC`
OUT: label 1

IN: Now give it for COCCOC(=O)C1=C(C)NC(C)=C(C(=O)OC/C=C/c2ccccc2)C1c1cccc([N+](=O)[O-])c1 (stereo not drawn) too.
OUT: label 0

IN: Item: `C=C(C)C(=O)OCCOC(=O)CC(C)=O`
OUT: label 0

IN: Same thing, different compound: `OC(CCCN1CCCCC1)(c1ccccc1)c1ccccc1`
OUT: label 0

IN: What do you have for CCC(C(=O)OCCOCCN(CC)CC)c1ccccc1 (stereo not drawn) ?
OUT: label 0

IN: Another compound to look at: `CC[C@@H]([C@H](C)O)n1ncn(-c2ccc(N3CCN(c4ccc(OC[C@@H]5CO[C@@](Cn6cncn6)(c6ccc(F)cc6F)C5)cc4)CC3)cc2)c1=O`
OUT: label 1

IN: Now consider `COc1ccc([C@@H]2Sc3ccccc3NC(=O)[C@@H]2O)cc1` .
OUT: label 0

IN: Next entry: `Cc1ccnc2ccccc12`
OUT: label 0

IN: Quick one: `Cc1cc(O)c2c(O)c3c(O)cccc3cc2c1`
OUT: label 0

IN: // next record CC(CCc1ccc2c(c1)OCO2)NN (stereo not drawn)
OUT: label 0

IN: Record: `O=C1OCCN1/N=C/c1ccc([N+](=O)[O-])o1`
OUT: label 0

IN: `O=S(=O)(c1ccccc1)c1ccc(Cl)cc1` ?
OUT: label 0

====

- assayRemarks: qHTS assay for small molecule activators of the heat shock response signaling pathway (AID 743210);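 on activation: HeLa cells with beta-lactamase reporter driven by heat shock elements; on the % scale 0 is the no-effect control and ±100 the full control effect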
- testSettings: HeLa HSE-bla reporter, beta-lactamase ratio, 5 h; series mostly up to 62.6 µM
Inconclusive results are not listed. The source made the active and inactive calls. Calls follow the shape of the dose curve; as a rule, active = well fitted activation curve with a large enough effect in the signal ratio in the repeat runs, with a control signal flat (not every such curve was filed as active); inconclusive = weak or mixed curves; inactive = flat fitted curve, though single readings scatter; the % refers to the signal ratio.
Classes to choose from: T = active, F = inactive

IN: Hello, I am checking results. What call was entered for `CC1(C)C(=O)N(Br)C(=O)N1Cl` ?
OUT: F

IN: Likewise for `CCOC(=O)c1ccccc1C` ?
OUT: F

IN: Would you kindly repeat that for `Fc1c(F)c(F)c(Br)c(F)c1F` ?
OUT: F

IN: Next compound: `O=C(NCCCN1CCOCC1)c1ccc(Cl)cc1`
OUT: F

IN: Param item: Fc1ccccc1[C@@H](F)COC1CCC(Nc2ncnc3[nH]ncc23)CC1 (some centres not stated)
OUT: F

IN: Consider next the compound `CCCC(=O)O[C@]1(C(=O)COC(=O)CC)CC[C@H]2[C@@H]3CCC4=CC(=O)CC[C@]4(C)[C@H]3[C@@H](O)C[C@@]21C` in the same way.
OUT: F

IN: Here is the next compound: `COC(=O)c1cc(Cl)ccc1NS(=O)(=O)C(F)(F)F`
OUT: F

IN: // query: `COc1cc2ncnc(Nc3ccc(F)c(Cl)c3)c2cc1OCCCN1CCOCC1`
OUT: F

IN: Item: `CCCCCCCCCCCCCCC[C@H](O)[C@@H](N)CO`
OUT: F

IN: Try this compound too: `O=C(Nc1ccc([N+](=O)[O-])cc1)Nc1ccc([N+](=O)[O-])cc1`
OUT: F

IN: Could you do the same for `COC(=O)[C@@H]1CC2=CC(=O)CC[C@]2(C)[C@@]23O[C@@H]2C[C@@]2(C)[C@@H](CC[C@@]24CCC(=O)O4)[C@H]13` , please?
OUT: F

IN: Request: `C[C@]12CCC(=O)C=C1C=C[C@@H]1[C@@H]2CC[C@@]2(C)[C@H]1CC[C@@]21CCC(=O)O1`
OUT: F

IN: Next up: `CCCCN(CCCC)C(=S)SSC(=S)N(CCCC)CCCC`
OUT: T

IN: Same question, `CCCCCCOC(=O)CCCCCCCC(=O)OCCCCCC` this time
OUT: F

IN: How about `CN(C)C(=O)Nc1ccc(Oc2ccc(Cl)cc2)cc1` ?
OUT: F

IN: Further, for `CC(=O)Nc1ccccc1C` ?
OUT: F

IN: Same again, this time with CC(COc1ccc(C(C)(C)C)cc1)OS(=O)OCCCl (configuration not stated)
OUT: F
